Source: ChEMBL document CHEMBL1157787

# system-name: UniProtKB P08183
# Sequence (P08183 whole entry): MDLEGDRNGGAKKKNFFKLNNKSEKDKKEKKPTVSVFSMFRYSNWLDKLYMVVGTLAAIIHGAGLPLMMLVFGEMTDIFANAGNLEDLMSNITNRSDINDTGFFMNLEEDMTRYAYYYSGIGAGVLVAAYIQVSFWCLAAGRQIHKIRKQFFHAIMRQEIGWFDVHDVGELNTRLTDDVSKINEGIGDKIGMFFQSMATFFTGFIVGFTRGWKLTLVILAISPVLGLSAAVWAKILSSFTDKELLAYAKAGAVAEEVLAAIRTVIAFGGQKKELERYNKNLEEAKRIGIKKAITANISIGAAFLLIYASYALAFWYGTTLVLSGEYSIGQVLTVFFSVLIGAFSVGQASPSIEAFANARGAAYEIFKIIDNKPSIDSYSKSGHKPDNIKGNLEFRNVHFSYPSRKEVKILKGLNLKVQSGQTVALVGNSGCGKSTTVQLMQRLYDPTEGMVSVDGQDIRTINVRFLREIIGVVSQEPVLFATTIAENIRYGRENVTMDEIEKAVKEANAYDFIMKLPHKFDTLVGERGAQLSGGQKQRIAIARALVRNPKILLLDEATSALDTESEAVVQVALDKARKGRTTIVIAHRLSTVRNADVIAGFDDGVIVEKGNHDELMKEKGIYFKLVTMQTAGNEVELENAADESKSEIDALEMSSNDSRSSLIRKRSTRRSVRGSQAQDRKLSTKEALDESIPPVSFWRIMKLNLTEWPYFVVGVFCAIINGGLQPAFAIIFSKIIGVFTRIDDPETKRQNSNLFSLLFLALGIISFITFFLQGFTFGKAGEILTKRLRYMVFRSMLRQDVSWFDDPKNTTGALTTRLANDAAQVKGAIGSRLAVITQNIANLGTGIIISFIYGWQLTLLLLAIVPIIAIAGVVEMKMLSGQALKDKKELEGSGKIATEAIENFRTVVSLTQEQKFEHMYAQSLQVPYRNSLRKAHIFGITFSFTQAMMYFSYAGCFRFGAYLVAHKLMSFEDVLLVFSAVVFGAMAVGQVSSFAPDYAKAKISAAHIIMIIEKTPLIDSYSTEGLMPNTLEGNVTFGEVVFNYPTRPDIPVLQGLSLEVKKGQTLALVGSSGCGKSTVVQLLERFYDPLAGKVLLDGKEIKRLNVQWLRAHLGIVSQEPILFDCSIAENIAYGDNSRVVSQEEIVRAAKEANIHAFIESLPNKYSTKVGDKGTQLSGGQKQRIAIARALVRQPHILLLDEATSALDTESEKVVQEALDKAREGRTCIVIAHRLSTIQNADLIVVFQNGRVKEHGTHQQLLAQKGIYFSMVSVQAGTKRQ
# test-summary: Inhibition of P-glycoprotein-mediated daunorubicin efflux in K562/R7 human leukemic cells overexpressing P-glycoprotein assessed as intracellular accumulation of daunorubicin at 10 uM after 1 hr by flow cytometry relative to progesterone
# Type: cell-based
# Design: scale not given: the % may be the effect or the level left
outcome-measure: Activity (%)

Sample answers from the record:
C[C@]12CC[C@H]3[C@@H](CCC4=CC(=O)CC[C@@]43C)[C@@H]1CC[C@@H]2C(=O)NCCCCn1cnc2c(N)ncnc21 = 78
C[C@]12CC[C@H]3[C@@H](CCC4=CC(=O)CC[C@@]43C)[C@@H]1CC[C@@H]2C(=O)NCc1ccc(Cn2cnc3c(N)ncnc32)cc1 = 98.1
C[C@]12CC[C@H]3[C@@H](CCC4=CC(=O)CC[C@@]43C)[C@@H]1CC[C@@H]2C(=O)NC[C@H]1CC[C@H](Cn2cnc3c(N)ncnc32)CC1 = 98.9
C[C@]12CC[C@H]3[C@@H](CCC4=CC(=O)CC[C@@]43C)[C@@H]1CC[C@@H]2C(=O)NC/C=C\Cn1cnc2c(N)ncnc21 = 86.2
C[C@]12CC[C@H]3[C@@H](CCC4=CC(=O)CC[C@@]43C)[C@@H]1CC[C@@H]2C(=O)NCC#CCn1cnc2c(N)ncnc21 = 61.2

I: C[C@]12CC[C@H]3[C@@H](CCC4=CC(=O)CC[C@@]43C)[C@@H]1CC[C@@H]2C(=O)NCCCCCCn1cnc2c(N)ncnc21
II: C[C@]12CC[C@H]3[C@@H](CCC4=CC(=O)CC[C@@]43C)[C@@H]1CC[C@@H]2C(=O)NC/C=C/Cn1cnc2c(N)ncnc21
Q: Please indicate which item has the smaller measured Activity: I versus II Answer format: the label of the selected item.
A: II
(II: 72.2%, I: 110.9%)
